The measurements presented in this section are drawn from patent US11198695B2.

- ASSAYED_SYSTEM: recombinant human MGAT2 (Homo sapiens (Human))
- Sequence (Q3SYC2 whole entry): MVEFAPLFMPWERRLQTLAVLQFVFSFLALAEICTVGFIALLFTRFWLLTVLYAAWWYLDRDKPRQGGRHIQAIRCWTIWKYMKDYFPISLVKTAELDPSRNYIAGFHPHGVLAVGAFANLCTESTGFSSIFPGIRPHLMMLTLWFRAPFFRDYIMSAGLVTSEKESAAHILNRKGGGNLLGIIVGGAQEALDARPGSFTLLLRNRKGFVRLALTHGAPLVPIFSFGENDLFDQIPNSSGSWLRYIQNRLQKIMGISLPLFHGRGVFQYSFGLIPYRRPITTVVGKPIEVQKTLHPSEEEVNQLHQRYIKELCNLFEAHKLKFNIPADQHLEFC
- ASSAY: Measurement of human MGAT2 inhibitory activity
- Format: biochemical
- EXPERIMENTAL_SETUP: read-out: IC50 (concentration exhibiting 50% enzyme inhibition), Table 53
READOUT_LABEL: IC50 (nM)

COMPOUND	READOUT_LABEL	UNIT_OF_MEASUREMENT	RECORDED_MEASUREMENT
CS(=O)(=O)CC(=O)Nc1c2c(nn1-c1ccc(C#N)c(F)c1)C[C@]1(CCc3cc(OCC(F)(F)F)ccc31)NC2=O [II-104]	IC50	nM	11.5

a: N#CCNC(=O)c1c2c(nn1-c1ccc(C#N)cn1)C[C@@]1(CCc3cc(OCC(F)(F)F)ccc31)NC2=O [II-243]
b: Cc1cc(-n2nc3c(c2C(=O)NCC(N)=O)C(=O)N[C@@]2(CCc4cc(OCC(F)(F)F)ccc42)C3)no1 [II-253]
Q: Compare a and b by numeric IC50 and name the larger one. To answer, give the label that identifies your chosen option.
Ans: b

A: CS(=O)(=O)CC(=O)Nc1c2c(nn1CCc1ccc(F)cc1)C[C@]1(CCOc3cc(OCC(F)(F)F)ccc31)NC2=O [II-28]
B: CS(=O)(=O)CC(=O)Nc1c2c(nn1-c1ccc(C(F)F)cc1)C[C@]1(CCc3cc(N4CC(F)(F)C4)ccc31)NC2=O [II-287]
Q: Between A and B , which one shows the smaller IC50 number? To answer, give the label that identifies your chosen option.
Ans: B
